Tested on: Enterococcus faecium ATCC 700221 (VRE)
Experiment: Broth microdilution MIC, E. faecium ATCC 700221 (VRE)
Type: cell-based
Details: Enterococcus faecium; broth microdilution, 37° C., 20 hours; read-out: MIC E. faecium ATCC 700221 (VRE)
From the text: Bacteria tested are Staphylococcus aureus NRS384 (a methicillin-resistant Staphylococcus aureus, MRSA), Staphylococcus aureus ATCC 29213 (a methicillin-sensitive Staphylococcus aureus, MSSA), Streptococcus pneumoniae ATCC 49619, Enterococcus faecalis ATCC 29212, Enterococcus faecium ATCC 700221 (a vancomycin-resistant enterococcus, VRE), Bacillus subtilis ATCC 6633, and Escherichia coli ATCC 25922. […]
endpointLabel: MIC (µg/mL)
Output spec: scalar in µg/mL, unitless text.

Use these answered entries as a reference point.
[[record]]
compound = "CC(C)(C)OC(=O)N1CCCC(CN2CCC(n3ncc4nc(NCc5ccc(Cl)c(Cl)c5)[nH]c(=O)c43)CC2)C1.Cl (stereo not drawn)"
measuredon = "Enterococcus faecium ATCC 700221 (VRE)"
endpointlabel = "MIC"
recordedresult = 4

[[record]]
compound = "CCOCCc1nn(C)c2c(=O)[nH]c(NCc3ccc(Cl)c(Cl)c3)nc12"
measuredon = "Enterococcus faecium ATCC 700221 (VRE)"
endpointlabel = "MIC"
recordedresult = 16

[[record]]
compound = "CN(CCn1ncc2nc(NCc3ccc(Cl)c(Cl)c3)[nH]c(=O)c21)C(=O)c1cc(Cl)nnc1Cl"
measuredon = "Enterococcus faecium ATCC 700221 (VRE)"
endpointlabel = "MIC"
recordedresult = 4

[[record]]
compound = "CC(C)(C)OC(=O)N1CCC(n2ncc3nc(NCc4ccc(Cl)c(Cl)c4)[nH]c(=O)c32)C1 (stereo not drawn)"
measuredon = "Enterococcus faecium ATCC 700221 (VRE)"
endpointlabel = "MIC"
recordedresult = 4


Field request: MIC | item: `O=c1[nH]c(NCc2ccc(Cl)c(Cl)c2)nc2cnn(C3CC3)c12`
1

What do we get for `NCCn1ncc2nc(NCc3ccc(Cl)c(Cl)c3)[nH]c(=O)c21` ?
32

What do we get for `O=c1[nH]c(NCc2ccc(Cl)c(Cl)c2)nc2cnn(Cc3cocn3)c12` ?
2
